# SYSTEM_UNDER_TEST: FLuc-C-HiBiT (Photinus pyralis, UniProt P08659)
# Construct: firefly luciferase with C-terminal HiBiT tag, E. coli expressed
# Sequence (P08659 whole entry, looked up): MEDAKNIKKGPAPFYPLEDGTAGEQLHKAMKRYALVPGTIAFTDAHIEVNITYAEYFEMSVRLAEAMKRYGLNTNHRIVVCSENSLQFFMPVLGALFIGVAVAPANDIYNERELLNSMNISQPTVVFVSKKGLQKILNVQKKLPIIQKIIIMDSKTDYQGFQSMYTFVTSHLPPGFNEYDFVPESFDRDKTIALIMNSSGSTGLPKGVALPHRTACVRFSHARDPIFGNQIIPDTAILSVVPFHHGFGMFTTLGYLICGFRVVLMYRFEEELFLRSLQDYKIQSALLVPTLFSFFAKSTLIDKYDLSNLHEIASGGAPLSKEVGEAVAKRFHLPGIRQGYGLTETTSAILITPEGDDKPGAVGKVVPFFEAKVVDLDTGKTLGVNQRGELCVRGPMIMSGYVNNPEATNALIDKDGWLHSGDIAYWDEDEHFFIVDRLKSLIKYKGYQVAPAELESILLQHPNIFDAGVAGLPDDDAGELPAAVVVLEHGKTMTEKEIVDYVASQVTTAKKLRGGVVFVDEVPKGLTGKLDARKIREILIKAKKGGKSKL
# EXPERIMENT_DESCRIPTION: biochemical
# MEASUREMENT_CONDITIONS: enzyme activity, 10 uM ATP; read-out: IC50 or SDR50 (mM) / FLuc E
PARAMETER_MEASURED: IC50 (mM)

Worked cases, answers included:
CC(=O)N1CCNc2cc(Nc3cccc(N(C)C)c3)ncc2C1
0.0161
Cc1cc(CNC(=O)C2(C(N)=O)CC2)c2[nH]c(-c3ccccc3)c(C)c2c1
0.0111
Cc1cn2nc(C(=O)Nc3ccc(C(=O)NCCc4cccs4)cc3)cc2c(=O)[nH]1
0.00881
COc1ccccc1CNC(=O)C1CCN(C(=O)c2ncn3c2COC(c2ccccc2)C3)CC1 (stereo not shown)
0.00624

[A] COC(=O)c1ccc2c(c1)C(=Cc1cc(Br)c(O)c(Br)c1)C(=O)N2
[B] O=C(Nc1cccnc1)c1cc(-c2ccc(Cl)cc2)on1
[C] COc1ccc(C(=O)NCCn2ccn3nc(-c4ccc(C)cc4C)cc3c2=O)c(C)c1
[D] CN1Cc2ccc(C(=O)NCCOc3ccccc3)cc2OCC1=O
Sort by IC50, descending. Your answer should be the labels, listed in the requested order.
D, A, C, B

* * *

# SYSTEM_UNDER_TEST: FLuc-C-HiBiT (Photinus pyralis, UniProt P08659)
# Construct: firefly luciferase with C-terminal HiBiT tag, E. coli expressed
# EXPERIMENT_DESCRIPTION: biochemical
# MEASUREMENT_CONDITIONS: enzyme activity, 10 uM ATP; read-out: IC50 or SDR50 (mM) / FLuc E
# Procedure: The enzyme activity of FLuc-N-HiBiT, FLuc-C-HiBiT, and FLuc-C-NLuc was measured similar to P. pyralis firefly luciferase (FLuc) as previously described. […] Compounds and controls were added to each plate as described in Supplementary Data 8 with a Hornet pintool system (Wako Automation). […] Luciferin was incubated with FLuc enzyme for 5 min before FLuc activity was then measured on a ViewLux CCD imager (PerkinElmer), with exposure times up to ten seconds with medium to high gain settings. […]
PARAMETER_MEASURED: IC50

Worked cases, answers included:
COc1ccc(-c2nc3ccccc3s2)cc1NC(=O)c1ccc(F)cc1
> 0.03 mM
C=CCN(C)C(=O)[C@@H](C)C1CC[C@@]2(C)Cc3sc(NC(=O)CN(C)C)nc3[C@@H](C)[C@@H]2[C@H]1O (stereo partly drawn)
> 0.03 mM
CN(C1CCc2ccccc2C1)[S+](=O)([O-])c1cccs1 (stereo not drawn)
> 0.03 mM
Cc1ccc(-c2nc3ccccc3s2)cc1NC(=O)c1ccc(-c2cccc(Cl)c2)o1
> 0.03 mM

The value of IC50 measured for the compound `Clc1cccc(-n2ncc3c(N4CCC(Cc5ccccc5)CC4)ncnc32)c1` turned out to be > 0.03 mM

The value of IC50 measured for the compound `COc1cccc(C(=O)Nc2ccc(O)c(-c3nc4ccccc4s3)c2)c1` turned out to be > 0.03 mM

* * *

# SYSTEM_UNDER_TEST: FLuc-N-HiBiT (firefly luciferase) (Photinus pyralis, UniProt P08659, form not given/L550V)
# Sequence (P08659 2-550 L550V, form open): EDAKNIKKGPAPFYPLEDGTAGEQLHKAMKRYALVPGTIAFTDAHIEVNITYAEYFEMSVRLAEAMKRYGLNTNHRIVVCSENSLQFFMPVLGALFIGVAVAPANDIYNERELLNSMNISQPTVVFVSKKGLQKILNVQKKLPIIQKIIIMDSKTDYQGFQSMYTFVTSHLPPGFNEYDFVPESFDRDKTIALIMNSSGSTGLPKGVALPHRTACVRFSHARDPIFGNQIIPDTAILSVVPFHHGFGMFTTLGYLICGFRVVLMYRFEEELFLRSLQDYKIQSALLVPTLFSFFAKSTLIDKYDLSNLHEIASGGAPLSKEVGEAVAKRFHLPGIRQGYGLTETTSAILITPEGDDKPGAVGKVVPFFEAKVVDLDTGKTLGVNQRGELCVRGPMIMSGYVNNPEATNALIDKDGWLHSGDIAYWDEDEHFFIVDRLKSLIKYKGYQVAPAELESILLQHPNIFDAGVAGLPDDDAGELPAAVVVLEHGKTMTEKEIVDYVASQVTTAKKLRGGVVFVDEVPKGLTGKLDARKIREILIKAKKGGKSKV
# EXPERIMENT_DESCRIPTION: SDR assay, FLuc-N-HiBiT
# MEASUREMENT_CONDITIONS: substituted indoline (clade A'); + ATP
PARAMETER_MEASURED: pSDR50 (clade A')

CN(Cc1ccco1)C(=O)c1cccc2c1CCN2C(=O)Nc1ccccc1 [NCGC00430106-01]
6.53
CC(NC(=O)c1cccc2c1CCN2C(=O)Nc1ccccc1)c1cccnc1 (stereo not shown) [NCGC00430104-01]
5.53
CCC(C)(C)NC(=O)c1cccc2c1CCN2C(=O)Nc1cccc(C)c1 [NCGC00430120-01]
4.90
CN(C)C(=O)c1cccc2c1CCN2C(=O)Nc1ccc(F)cc1 [NCGC00430198-01]
5.19
CCCCNC(=O)c1cccc2c1CCN2C(=O)Nc1ccccc1 [NCGC00430146-01]
5.71
Cc1ccc(NC(=O)N2CCc3c(C(=O)NCCc4ccccn4)cccc32)cc1 [NCGC00430168-01]
4.89
CN(Cc1ccccc1)C(=O)c1cccc2c1CCN2C(=O)Nc1ccccc1 [NCGC00430102-01]
6.38

* * *

# SYSTEM_UNDER_TEST: FLuc-C-HiBiT (Photinus pyralis)
# Construct: firefly luciferase with C-terminal HiBiT tag, E. coli expressed
# EXPERIMENT_DESCRIPTION: biochemical
# MEASUREMENT_CONDITIONS: enzyme activity, 10 uM ATP; read-out: IC50 or SDR50 (mM) / FLuc E
PARAMETER_MEASURED: IC50 (mM)

COc1ccc(-c2ncc3c(n2)OCCN(C)C3=O)cc1F
0.018
O=C(NCc1ccc(F)cc1Cl)C1CCN(C(=O)c2ncn3c2COC(c2ccccc2)C3)CC1 (centres unmarked)
0.00881

[a] Cc1cccc(OCCc2noc(C3CN(C(=O)Nc4ccc5c(c4)OCCO5)C3)n2)c1
[b] COc1cc(NC(=O)c2ccc(-c3ncn[nH]3)cc2)ccc1NC(=O)C(C)(C)C
Consider a and b . Which of these has its IC50 at a higher number? # respond with the chosen item's label
b

* * *

# SYSTEM_UNDER_TEST: FLuc-C-HiBiT (Photinus pyralis, UniProt P08659)
# Construct: firefly luciferase with C-terminal HiBiT tag, E. coli expressed
# EXPERIMENT_DESCRIPTION: biochemical
# MEASUREMENT_CONDITIONS: enzyme activity, 10 uM ATP; read-out: IC50 or SDR50 (mM) / FLuc E
PARAMETER_MEASURED: IC50 (mM)

CCOc1ccc(-n2nc(CO)c(C(=O)NCc3cccc(OC)c3)n2)cc1 [NCGC00117153-01]
0.0111
CC(C)CN1CCNc2cc(-c3ccccc3)ncc2C1 [NCGC00411061-01]
0.0226
CCCc1ccc2oc(C(=O)NCCc3nncn3CC)c(C)c2c1 [NCGC00436423-01]
0.0124
CCc1cccc(NC(=O)c2cc(-c3ccc[nH]3)n[nH]2)c1 [NCGC00454482-03]
0.00989

* * *

# SYSTEM_UNDER_TEST: PKA-N-HiBiT (Homo sapiens, UniProt P17612)
# EXPERIMENT_DESCRIPTION: SDR assay, PKA-N-HiBiT
# MEASUREMENT_CONDITIONS: PKA-N-HiBiT qHTS, SDR assay; average maximal response
PARAMETER_MEASURED: SDR Ave Max Response
// return a plain number; no unit text

Worked cases, answers included:
CC(C)CCN1c2nc(Nc3cc(F)c(O)c(F)c3)ncc2N(C)C(=O)C1C (stereo not drawn) [BI-D1870]
-9.75
c1cc(-c2cc(C3CCNCC3)[nH]n2)ccn1 [ETP 45835 2HCl]
25.66
Cc1n[nH]c2ncc(C(=O)N3CCC[C@H]3c3ccc(Cl)cc3)cc12 [MSC2530818]
40.05
Cc1[nH]c2ccccc2c1C1=C(NCCc2ccc(F)cc2)C(=O)N(C)C1=O [IM-12]
-30.07
COC(=O)Nc1ccc(-c2nc(N3CCOCC3)c3cnn(C4CCN(C(=O)OC)CC4)c3n2)cc1 [WYE-354]
4.88

Here is the next item to consider.
The value of SDR Ave Max Response measured for the molecule O=c1c(O)c(-c2ccc(O)c(O)c2)oc2cc(O)cc(O)c12 [Quercetin] turned out to be -5.00

* * *

# maps each entry to its IC50
# SYSTEM_UNDER_TEST: FLuc-C-HiBiT (Photinus pyralis)
# Construct: firefly luciferase with C-terminal HiBiT tag, E. coli expressed
# EXPERIMENT_DESCRIPTION: biochemical
# MEASUREMENT_CONDITIONS: enzyme activity, 10 uM ATP; read-out: IC50 or SDR50 (mM) / FLuc E
State the answer as a number, implicitly in µM.

COc1ccc(NC(=O)Nc2ccc(C)n(CC(=O)N3CCCC(C)C3)c2=O)cc1 (stereo not shown)
7.85
O=C(O)c1cccc(-c2noc(-c3ccccc3F)n2)c1 [NCGC00168759-10]
0.00624

Here is the next item to consider.
The value of IC50 measured for the compound CCOc1ccccc1CNC(=O)C1CCN(C(=O)c2ncn3c2COC(c2ccccc2)C3)CC1 (stereo not shown) turned out to be 3.13

* * *

# SYSTEM_UNDER_TEST: FLuc-C-HiBiT (Photinus pyralis)
# Construct: firefly luciferase with C-terminal HiBiT tag, E. coli expressed
# EXPERIMENT_DESCRIPTION: biochemical
# MEASUREMENT_CONDITIONS: enzyme activity, 10 uM ATP; read-out: IC50 or SDR50 (mM) / FLuc E
PARAMETER_MEASURED: IC50 (mM)

Worked cases, answers included:
Cc1ccc(-c2cc3c(=O)n(CCNC(=O)c4ccco4)ccn3n2)c(C)c1 [NCGC00456979-01]
0.00989
CCc1nn2c(-c3ccco3)ccnc2c1-c1ccc(F)cc1 [NCGC00164922-01]
0.00785
Cc1ccc(NC(=O)c2ccc(CN3C(=O)NC4(CCOCC4)C3=O)cc2)cc1C [NCGC00454605-01]
0.0111

[a] CC(C)c1ccc(N2C(=S)N[C@H]3[C@@H](O)[C@H](O)C[C@@H](C(=O)N(C)Cc4ccccc4)[C@H]32)cc1 [NCGC00391233-01]
[b] COc1cccc(CNC(=O)Nc2cccc(-c3ccc(N4CCOCC4)nn3)c2)c1 [NCGC00427600-01]
Could you check which of a and b has a smaller value for IC50? # respond with the chosen item's label
b
(b: 0.00279 mM, a: 0.0111 mM)
